Study Target: GST-Bcl-XL (Homo sapiens, UniProt Q07817)
Sequence (Q07817 whole entry): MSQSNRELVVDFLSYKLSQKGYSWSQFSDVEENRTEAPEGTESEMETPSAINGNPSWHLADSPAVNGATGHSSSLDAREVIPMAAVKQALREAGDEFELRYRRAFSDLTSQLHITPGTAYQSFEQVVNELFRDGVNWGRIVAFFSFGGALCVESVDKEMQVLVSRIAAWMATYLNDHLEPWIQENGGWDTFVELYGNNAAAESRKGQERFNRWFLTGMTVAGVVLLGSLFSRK
Assay Info: TR-FRET binding assay, GST-Bcl-XL with F-Bak peptide probe
Run Parameters: TR-FRET Binding Affinity, GST-Bcl-XL, F-Bak peptide probe
pKi: −log10 of the molar value.
Label t for high-side pKi (at or above 8) and f for low-side pKi (below it).

{"columns": ["Compound", "Class Label"],
 "data": [
  ["CC1(C)CCC(CN2CCN(c3ccc(C(=O)NS(=O)(=O)c4ccc(NCC5(N)CCCCC5)c([N+](=O)[O-])c4)c(Oc4ccc5[nH]ccc5c4)c3)CC2)=C(c2ccc(Cl)cc2)C1 [Example 250]", "f"],
  ["CC1(C)CCC(CN2CCN(c3ccc(C(=O)NS(=O)(=O)c4ccc(NCCCN5CCCC5)c([N+](=O)[O-])c4)c(Oc4cccc5[nH]ccc45)c3)CC2)=C(c2ccc(OC(F)(F)F)cc2)C1 [Example 70]", "f"],
  ["O=C(NS(=O)(=O)c1ccc(NCCCN2CCCC2)c([N+](=O)[O-])c1)c1ccc(N2CCN(CC3=C(c4ccc(Cl)cc4)CCCCC3)CC2)cc1Oc1cccc2[nH]ccc12 [Example 141]", "f"],
  ["CC1(C)CCC(CN2CCN(c3ccc(C(=O)NS(=O)(=O)c4ccc(NCCCN5CCCC5)c([N+](=O)[O-])c4)c(Oc4cccc5[nH]ccc45)c3)CC2)=C(c2ccc(Cl)cc2)C1 [Example 102]", "t"],
  ["O=C(NS(=O)(=O)c1ccc(NCC2CCOCC2)c([N+](=O)[O-])c1)c1ccc(N2CCN(Cc3cc(OCCN4CCCC4)ccc3-c3ccc(Cl)cc3)CC2)cc1Oc1ccccc1 [Example 138]", "t"],
  ["CN1CCC(COc2ccc(S(=O)(=O)NC(=O)c3ccc(N4CCN(CC5=C(c6ccc(Cl)cc6)CC(C)(C)CC5)CC4)cc3Oc3ccc4[nH]ccc4c3)cc2[N+](=O)[O-])CC1 [Example 354]", "t"],
  ["CC(C1=C(c2ccc(Cl)cc2)CC(C)(C)CC1)N1CCN(c2ccc(C(=O)NS(=O)(=O)c3ccc(NCC4CCOCC4)c([N+](=O)[O-])c3)c(Oc3ccc4[nH]ccc4c3)c2)CC1 (stereo not shown) [Example 253]", "f"],
  ["CC1(C)CCC(CN2CCN(c3ccc(C(=O)NS(=O)(=O)c4ccc(NN5CCN(CCO)CC5)c([N+](=O)[O-])c4)c(Oc4ccc5[nH]ccc5c4)c3)CC2)=C(c2ccc(Cl)cc2)C1 [Example 233]", "f"],
  ["CC1(C)CCC(CN2CCN(c3ccc(C(=O)NS(=O)(=O)c4ccc(NCC5CCOCC5)c([N+](=O)[O-])c4)c(Oc4ccc5[nH]ccc5c4)c3)CC2CO)=C(c2ccc(Cl)cc2)C1 (stereo not shown) [Example 236]", "f"],
  ["O=C(NS(=O)(=O)c1ccc(NC2CCN(C3CCOCC3)CC2)c([N+](=O)[O-])c1)c1ccc(N2CCN(Cc3ccc(C(F)(F)F)cc3-c3ccc(Cl)cc3)CC2)cc1Oc1ccc2[nH]ccc2c1 [Example 358]", "f"]
]}
